assay: Liver microsomal stability, rat; conditions: male, Sprague-Dawley, microsomes, CLint, control compound, rat liver microsomes

compound	microsomal CLint / µL/min/mg
C[C@]12CC[C@H]3[C@@H](CCC4=CC(=O)CC[C@@]43C)[C@@H]1CC[C@@H]2O [Testosterone, testosterone, reference compound]	911

----------
assay: Pharmacokinetics of PEA after intravenous administration in male Sprague-Dawley rats; assay type: in vivo, Sprague-Dawley rat; conditions: male, Sprague-Dawley, rat, in vivo, iv, 1 mg/kg, Plasma concentration of PEA, individual rats

molecule	reading_unit	concentration at 2 hr
CCCCCCCCCCCCCCCC(=O)NCCO [PEA, palmitoylethanolamide]	ng/mL	5.2

----------
assay: Simulated intestinal fluid (SIF) stability in the presence of various enzymes; type: in vitro ADME; settings: SIF + Pancreatin, 60 min, 1 μM

compound	% Remaining of Initial (n = 1)
CCCCCCCCCCCCCCCC(=O)NCCOC(=O)CCC(=O)OCC(O)CO (centres unmarked) [Compound I-9]	20%
CC/C=C\C/C=C\C/C=C\C/C=C\C/C=C\CCCC(=O)OCCNC(=O)CCCCCCCCCCCCCCC [Compound I-5]	<1.0%
CCCCCCCCCCCCCCCC(=O)NCCOC(=O)CCC(=O)OCC(COC(=O)CCCCCCC)OC(=O)CCCCCCC (centres unmarked) [Compound I-3, PEA-Succinate-Glycerol-Di-Caprylic]	<1.0%
CCCCCCCCCCCCCCCC(=O)NCCOC(=O)CCC(=O)OC[C@H]1O[C@@](CO)(O[C@H]2O[C@H](CO)[C@@H](O)[C@H](O)[C@H]2O)[C@@H](O)[C@@H]1O [Compound I-7]	6.5%
CCCCCCCCCCCCCCCC(=O)NCCOC(=O)CCC [Compound I-2]	98%
CCCCCCCCCCCCCCCC(=O)NCCOC(=O)CCC(=O)OCC(COC(=O)CCC)OC(=O)CCC (centres unmarked) [Compound I-11]	<1.0%
CCCCC/C=C\C/C=C\CCCCCCCC(=O)OCCNC(=O)CCCCCCCCCCCCCCC [Compound I-6]	3.1%
CCCCC/C=C\C/C=C\CCCCCCCC(=O)OCC(COC(=O)CCC(=O)OCCNC(=O)CCCCCCCCCCCCCCC)OC(=O)CCCCCCC/C=C\C/C=C\CCCCC (centres unmarked) [Compound I-13]	3.4%

----------
experiment: in vitro; settings: male, Sprague-Dawley, rat, s9, 0.5 h, 1 μM
property: % Remaining of Initial (n = 1), 30 min (%)

compound	relation_qualifier	reported_result
CC/C=C\C/C=C\C/C=C\C/C=C\C/C=C\CCCC(=O)OCCNC(=O)CCCCCCCCCCCCCCC [Compound I-5]	=	46
CCCCCCCCCCCCCCCC(=O)NCCOC(=O)CCC(=O)OC[C@H]1O[C@@](CO)(O[C@H]2O[C@H](CO)[C@@H](O)[C@H](O)[C@H]2O)[C@@H](O)[C@@H]1O [Compound I-7]	=	31
CCCCCCCCCCCCCCCC(=O)NCCOC(=O)CCC(=O)OCC(O)CO (stereo not shown) [Compound I-9]	=	15
CCCCC/C=C\C/C=C\CCCCCCCC(=O)OCCNC(=O)CCCCCCCCCCCCCCC [Compound I-6]	=	79
CCCCCCCCCCCCCCCC(=O)NCCOC(=O)CCC(=O)OCC(COC(=O)CCCCCCC)OC(=O)CCCCCCC (stereo not shown) [Compound I-3, PEA-Succinate-Glycerol-Di-Caprylic]	=	42
CCCCCCCCCCCCCCCC(=O)NCCOC(=O)CCC(=O)OCC(COC(=O)CCC)OC(=O)CCC (stereo not shown) [Compound I-11]	<	1.0
CCCCCCCCCCCCCCCC(=O)NCCOC(=O)CCC [Compound I-2]	<	1.0

----------
assay: Intestinal S9 fraction stability, rat; conditions: male, Sprague-Dawley, rat, s9, Half-life, calculated value in parentheses, control compound, rat intestinal S9 fraction

molecule	half-life (h)
C[C@]12CC[C@H]3[C@@H](CCC4=CC(=O)CC[C@@]43C)[C@@H]1CC[C@@H]2O [Testosterone, testosterone, reference compound]	1.7

----------
Measured concentration of analyte PEA, 0 min reference
assay: in vitro; details: both, human, 0 min, 1 μM
property: Measured concentration of analyte PEA, 0 min (µM)

molecule	reported_result
CCCCCCCCCCCCCCCC(=O)NCCOC(=O)CCC(=O)OCC(COC(=O)CCCCCCC)OC(=O)CCCCCCC (stereo not shown) [Compound I-3, PEA-Succinate-Glycerol-Di-Caprylic]	0
CCCCCCCCCCCCCCCC(=O)NCCOC(=O)CCC(=O)OCC(O)CO (stereo not shown) [Compound I-9]	0.47
CCCCCCCCCCCCCCCC(=O)NCCOC(=O)CCC [Compound I-2]	0.15
CC/C=C\C/C=C\C/C=C\C/C=C\C/C=C\CCCC(=O)OCCNC(=O)CCCCCCCCCCCCCCC [Compound I-5]	0.014
CCCCC/C=C\C/C=C\CCCCCCCC(=O)OCCNC(=O)CCCCCCCCCCCCCCC [Compound I-6]	0
CCCCCCCCCCCCCCCC(=O)NCCOC(=O)CCC(=O)OCC(COC(=O)CCC)OC(=O)CCC (stereo not shown) [Compound I-11]	0.046
CCCCCCCCCCCCCCCC(=O)NCCOC(=O)CCC(=O)OC[C@H]1O[C@@](CO)(O[C@H]2O[C@H](CO)[C@@H](O)[C@H](O)[C@H]2O)[C@@H](O)[C@@H]1O [Compound I-7]	0.22

----------
assay: in vitro; conditions: male, Beagle, dog, 0 min, 1 μM
Concentration (μM) of analyte PEA, 0 min reference
property: Concentration (μM) of analyte PEA, 0 min (µM)

smiles_representation	property	reported_result
CCCCCCCCCCCCCCCC(=O)NCCOC(=O)CCC	Concentration (μM) of analyte PEA, 0 min	0.23
CCCCCCCCCCCCCCCC(=O)NCCOC(=O)CCC(=O)OC[C@H]1O[C@@](CO)(O[C@H]2O[C@H](CO)[C@@H](O)[C@H](O)[C@H]2O)[C@@H](O)[C@@H]1O	Concentration (μM) of analyte PEA, 0 min	0.21
CCCCC/C=C\C/C=C\CCCCCCCC(=O)OCCNC(=O)CCCCCCCCCCCCCCC	Concentration (μM) of analyte PEA, 0 min	0.016

----------
Assay: in vitro
Details: both, human, s9, Half-life
Description: Reaction mixture, minus cofactors, was prepared as described below. Test article was added into the reaction mixture at a final concentration of 1 μM. […] Half-lives were calculated using GraphPad software, fitting to a single-phase exponential decay equation. Reaction mixture, minus cofactors, was prepared as described below. […] Half-lives were calculated using GraphPad software, fitting to a single-phase exponential decay equation. […]
half-life at 1 μM reference

compound	half-life at 1 μM
CCCCCCCCCCCCCCCC(=O)NCCOC(=O)CCC(=O)OC(COC(=O)CCC)COC(=O)CCC [Compound I-16]	< 10 min
CCCCC/C=C\C/C=C\CCCCCCCC(=O)OCC(COC(=O)CCC(=O)OCCNC(=O)CCCCCCCCCCCCCCC)OC(=O)CCCCCCC/C=C\C/C=C\CCCCC (stereo not drawn) [Compound I-13]	58 min
CCCCCCCCCCCCCCCC(=O)NCCOC(=O)CCC(=O)OC(CO)CO [Compound I-8]	< 10 min

----------
% Remaining of Initial (n = 1) reference
Test: Simulated intestinal fluid (SIF) stability in the presence of various enzymes
Assay type: in vitro ADME
Details: SIF + Trypsin, 60 min, 1 μM
Experimental: Studies were carried out in simulated intestinal fluid in the presence of various enzymes. Simulated intestinal fluid was prepared by dissolving 6.8 g of monobasic potassium phosphate in 1.0 L of water. Aliquots of this solution were taken and the pH was adjusted to 6.8. Individual enzymes were then spiked into aliquots for each experiment. A DMSO stock was first prepared for the test article. […]

compound	% Remaining of Initial (n = 1)
CCCCCCCCCCCCCCCC(=O)NCCOC(=O)CCC(=O)OCC(COC(=O)CCC)OC(=O)CCC (stereo not shown)	45%
CCCCCCCCCCCCCCCC(=O)NCCOC(=O)CCC(=O)OCC(O)CO (stereo not shown)	22%
CCCCC/C=C\C/C=C\CCCCCCCC(=O)OCC(COC(=O)CCC(=O)OCCNC(=O)CCCCCCCCCCCCCCC)OC(=O)CCCCCCC/C=C\C/C=C\CCCCC (stereo not shown)	55%
CCCCCCCCCCCCCCCC(=O)NCCOC(=O)CCC(=O)OC[C@H]1O[C@@](CO)(O[C@H]2O[C@H](CO)[C@@H](O)[C@H](O)[C@H]2O)[C@@H](O)[C@@H]1O	38%

----------
settings: male, Sprague-Dawley, rat, in vivo, po
Bioavailability reference
property: Bioavailability (%)

compound	property	reading_unit	reported_result
CCCCCCCCCCCCCCCC(=O)NCCOC(=O)CCC(=O)OC[C@@H](COC(=O)CCC)OC(=O)CCC [Compound I-15]	Bioavailability	%	3.42
CCCCCCCCCCCCCCCC(=O)NCCOC(=O)CCC(=O)OCC(COC(=O)CCC)OC(=O)CCC (centres unmarked) [Compound I-11]	Bioavailability	%	4.5
CCCCCCCCCCCCCCCC(=O)NCCOC(=O)CCC(=O)OC(COC(=O)CCC)COC(=O)CCC [Compound I-16]	Bioavailability	%	12.1
CCCCCCCCCCCCCCCC(=O)NCCOC(=O)CCC(=O)OC(CO)CO [Compound I-8]	Bioavailability	%	17.3
CCCCCCCCCCCCCCCC(=O)NCCOC(=O)CCC(=O)OC[C@H](COC(=O)CCC)OC(=O)CCC [Compound I-14]	Bioavailability	%	4.39
